Hi there, I'd appreciate the recorded PBM binding z-score for every entry that follows.
Test system: VDR:RXRa (NR concentration 270 nM, RXRa partner concentration 90 nM)
Assay: PBM binding z-score (relative to random genomic background probes); higher = stronger binding; sequences stand for … in GC…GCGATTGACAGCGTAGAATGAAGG
// no unit string in output, number only

Asked: Given the sequence "CCTAGCAGGCCAGGGTCACTCGAGCATTTCGCTT" , what is its reported PBM binding z-score?
Given back: 2.54

Asked: Record request: PBM binding z-score value, item "CCAGACAGGTGTAAGGTAACTCAGTCTGGTACGC"
Given back: 0.0147

Asked: Quick one: PBM binding z-score of "TCTATTAGTTAAAGGGCAACCGACGAGTCCGTTT" ?
Given back: 1.46

Asked: Consider the sequence "CCGAGAAGGTTATGGGGCATTCAGGCAACGGTGA" and give its measured PBM binding z-score.
Given back: 0.66

Asked: Could you tell me which PBM binding z-score is on file for "CCTTACGGGTCACCGACAGGTTATAGCATTTGGA" ?
Given back: 4.44

Asked: Consider the sequence "ATCTCTAGGTAAGACTCAGATCAGTGAAGAACGC" and give its measured PBM binding z-score.
Given back: 0.238

###

Assign PBM binding z-score to each entry below.
Test system: PPARa:RXRa (NR concentration 270 nM, RXRa partner concentration 90 nM)
Test: PBM binding z-score (relative to random genomic background probes); higher = stronger binding; sequences stand for … in GC…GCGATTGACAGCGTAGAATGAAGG
Reply briefly: the number, and no unit.

Asked: // fetch PPARa:RXRa (NR concentration 270 nM, RXRa partner concentration 90 nM) PBM binding z-score for "CATACAGGGTCAGTTAGGCCAGAGTAGGGACGGC"
Given back: 3.36

Asked: Lab note: need PBM binding z-score for "ATATGTAGGTTAAGGGGCATTCAGGTTGGTTCGC" on PPARa:RXRa (NR concentration 270 nM, RXRa partner concentration 90 nM), anyone have it?
Given back: 5.25

Asked: Can you look up PBM binding z-score on PPARa:RXRa (NR concentration 270 nM, RXRa partner concentration 90 nM) for "AGAATGAGGTTCCCAAAGATCAGGGAAACGCTTG" ?
Given back: 0.11

###

Tested on: VDR homodimer (NR concentration 270 nM)
Assay: PBM binding z-score (relative to random genomic background probes); higher = stronger binding; sequences stand for … in GC…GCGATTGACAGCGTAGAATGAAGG
Measurement Label: PBM binding z-score
// keep it numeric: no unit symbol after the value

Asked: Return reported PBM binding z-score; argument: "CCTTACGGGTCACTCCAGGTTATAGCCTCGGAGT"
Given back: 1.13

Asked: Give the measured PBM binding z-score of "ACAGACAGGTGATGAAGGTAACTGAGGCTATCAT" .
Given back: -0.259

Asked: I'd like to know its PBM binding z-score. The sequence in question is "TCTCGTTGGTCAAAGGTCACACACTCGAAATGCG"
Given back: 2.94

Asked: Consider the sequence shown here: "TCATATAGGTCAATGCTAGGTGAAAGTCCGATCT" What is its recorded PBM binding z-score?
Given back: 0.879

Asked: Param item = "CGAACCAGGTCAAGGACAGTGAATCTCCGCACGC" ; retrieve measured PBM binding z-score.
Given back: 1.05

Asked: Entry under review: "TCTCGTAGATCAGCAGGTTAAGAAAGCTGGCCAA" . Reported PBM binding z-score?
Given back: -0.597

Asked: Look up PBM binding z-score for this sequence: "ATCTGTAGGTTAAGGGTCATTCAGGTTGGTTCGC"
Given back: 4.28

Asked: Name the recorded PBM binding z-score for "CAAACTAGGTGACGAAAGGTCAAAGTCGAATGAC" .
Given back: 2.22

Asked: Look at this sequence and give its reported PBM binding z-score. "ATACCAAGGGGATCGTGAGGTCGTTGATACTAAC"
Given back: 2.27

Asked: Requested field: PBM binding z-score. Item: "CATACAGGGTCAGCAAGGCCAGAGTAGGGACGGC"
Given back: 2.08

Asked: Would you mind telling me what PBM binding z-score value was observed for "CCTAGCAGGCCAATCTGTGTCACTCAAGGCTTGA" ?
Given back: -0.327

Asked: Value lookup for PBM binding z-score; key = "CAAACTAGGTCACGAAAGGTCAAAGACGAATGAC"
Given back: 3.52

Asked: Data request, read-out PBM binding z-score, for "TGAATGAGGTTATAAGATGAGGGAACGTTGCAAA"
Given back: 0.388

Asked: I would be grateful if you could share the reported PBM binding z-score for "AATACAGGGTCATGGTAGGCCAGAGTACGCACAG" .
Given back: 3.24

Asked: What measured PBM binding z-score goes with "CCTCCTAGGTCAATGGTCAGCTAAAGCAGCTCGC" ?
Given back: 0.912

Asked: Entry under review: "TCGAGTAGGTTAGGGGCATTCTGAATGGCGTCGA" . Reported PBM binding z-score?
Given back: 0.572

Asked: Reported PBM binding z-score for "CCTATTAGTTGACCCTAAGGGCAACCGAAGCTCG" : what is it?
Given back: 1.72

Asked: I would be grateful if you could share the reported PBM binding z-score for "AGAACGAGGGCACTCTGAGTTGATAGCAGAGTAG" .
Given back: 1.73

Asked: If you can, please state the reported PBM binding z-score value of "CCTTACGGGCCACTCCAGGTTATAGCATCGGAGT" .
Given back: 0.0382

Asked: Sample "CCTACTGGTCCACGAAAGGTCATTGATTCAGTGA" — what was its PBM binding z-score?
Given back: 3.62

Asked: What PBM binding z-score value was documented for this sequence, "GCAGACAGGTGAAACGCAGGTAACGCAGGGTGGC" ?
Given back: -0.757

Asked: Query: PBM binding z-score; subject: "GGAACGAGGGCAAAGTTGATAGCATCTGTCGACG"
Given back: 1.21

Asked: Endpoint output: PBM binding z-score of "TCTCGGAGGGCACGAAGGTCAGAGCTTTCCAGAG" . Value?
Given back: 1.81

Asked: Name the recorded PBM binding z-score for "CAAACTAGGTCACCGCAAGGTCAAAGTCCGCATG" .
Given back: 4.3

Asked: # input sequence: "CCTCGGACGACAACAGGAGGTCAGAGCTGCCAGA" ; wanted: its PBM binding z-score
Given back: 0.934

Asked: Look at this sequence and give its reported PBM binding z-score. "ACTAGTTGGTCAGCCGAGGTCACACACAATTCGG"
Given back: 4.04

Asked: Look up PBM binding z-score for this sequence: "GCTAGCAGGCCATTTGAGTCACTCAATGACGGGC"
Given back: -0.525

Asked: Quick one: PBM binding z-score of "TCTTGTAGATCATCAGGAGGTTAAGAAAGATCGA" ?
Given back: -0.126

Asked: So what does the record say about PBM binding z-score for "ATCGAAAGGGCGACGAGGTGAGTATACACCGTTT" ?
Given back: 0.597

Asked: What does the data say about its PBM binding z-score? Entry: "ATCTGTAGGTAACCAAGTTCAGTGAATGCCGAAC"
Given back: 2.56

Asked: Can you look up the measured PBM binding z-score of "GCTAGCCGGCCATTTGGGTCACTCAATGACGGGC" for me?
Given back: 0.157

###

Kindly supply the reported PBM binding z-score values for the records listed here.
System: FXR:RXRa (NR concentration 270 nM, RXRa partner concentration 90 nM)
Test: PBM binding z-score (relative to random genomic background probes); higher = stronger binding; sequences stand for … in GC…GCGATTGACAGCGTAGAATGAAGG
Lab note: jot down the number only; don't add units.

Asked: Form field: reported PBM binding z-score of "ATCGAAAGGTCGCGGTGAGTATAGAGAAAGGGAA"
Given back: 6

Asked: Entry "GCTATTAGTTGATAGGGCAACCGAATGATTCTCG" has what PBM binding z-score?
Given back: 0.0649

Asked: Which PBM binding z-score reading was recorded for the sequence "ATCGAAAGGTCGTGAGGTGAGTCTACAGAAAGGC" ?
Given back: 4.96

Asked: Data request, read-out PBM binding z-score, for "TCTAGTTCGTCAAAGGTCACACACTCGAAATGCG"
Given back: 6.15

Asked: Give its PBM binding z-score value. Item: "TCTATTAGTTGATTAGGGCAACGGAAACAGCGGA"
Given back: 0.551

Asked: // lookup PBM binding z-score for "GATACAGGGTCAAGGCCGGAGTACGCGTATTGAT"
Given back: 6.13

Asked: So what's the measured PBM binding z-score for this one? "TCTGATAGGTCAGTTGGTCAGCTAACGAGCTGCC"
Given back: 2.27

Asked: // PBM binding z-score lookup, key: "ATCTTTAGGTAACAAGTTCAGTGAAAGAGAGGAC"
Given back: 1.21

Asked: Item under review: "GTACCAAGCTGAATAGGTCGTTGATGAGTAGGCG" . Reported PBM binding z-score?
Given back: -0.533

Asked: What does the record list as PBM binding z-score for "TCTGCTAGGTCAAGGATGGTCAGCTAATCTGCTA" ?
Given back: 2.86

Asked: Any idea what its PBM binding z-score is? The sequence is "CCTACTGGGCCAAAGCTCATTGATTCCAATGCTC"
Given back: -0.596

Asked: Give the measured PBM binding z-score of "CCTACTGTGCCAAAGGTCATTGATTCCAATGCTC" .
Given back: 5.48

Asked: Can you look up the measured PBM binding z-score of "GCTTATGGGTCAAAGGTTATAGCATGAATAGAAT" for me?
Given back: 6.45

Asked: Given the sequence "AGTCAAAGTTCCGGACGAGGTAACGTAAAGCACG" , what is its reported PBM binding z-score?
Given back: -0.0931

Asked: Bench note: what PBM binding z-score did "TCTTGTACATCAGCAGGTTAAGAAAGCTGGCCAA" show?
Given back: 0.22

Asked: Looking for the measured PBM binding z-score of "GCTTGTAGATCAAGGTTAAGTAAGACTAAGCTAA" , can you help?
Given back: 0.31

Asked: Suppose we examine the sequence "TCTTGTAGATCAATAGAGATTAAGAAAGTGCGCT" ; what PBM binding z-score value has been reported?
Given back: -0.285

Asked: Looking for the measured PBM binding z-score of "GCTAGTTGGTCAGCAAAAGGTCACACACCGGTCG" , can you help?
Given back: 3.17

Asked: Which measured PBM binding z-score value corresponds to "ATCGAAAGGTCGAGGTGAGTAGAGAGAAAGGGAA" ?
Given back: 4.27

Asked: What does the record list as PBM binding z-score for "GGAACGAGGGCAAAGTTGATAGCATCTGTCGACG" ?
Given back: 1.45

Asked: Find the recorded PBM binding z-score belonging to "CCTTACGGGTCACTGACAGGTTAGAGCATTTGGA" and report it.
Given back: 5.51

Asked: For the sequence shown here, "ATCGAAAGGCCGACGAGGTGAGTATACACCGTTT" , give the reported PBM binding z-score.
Given back: 0.135

Asked: Look up PBM binding z-score: "CCTAGCACGCCAGGGTCACTCAAGCATTTCGCTT"
Given back: 1.59

Asked: Return reported PBM binding z-score; argument: "CCTATTATTTGACCATAAGGGCAACCGAAGCTCG"
Given back: 1.29

Asked: Consider the sequence "TCTATTACTTGAAGGGCAACCGACGAGTCCGTTT" and give its measured PBM binding z-score.
Given back: 0.851

Asked: Which PBM binding z-score reading was recorded for the sequence "AGAACGAGGACAATGAGTTGATAGCACGGGTGGC" ?
Given back: -0.125

Asked: # input sequence: "GGAACGAGGGCACTCGAGTTGATAGCATGGCGAT" ; wanted: its PBM binding z-score
Given back: 0.375

Asked: I would be grateful if you could share the reported PBM binding z-score for "AGAATGAGGTTACGAAAGATCAGGGAAACGCTTG" .
Given back: 2.59

Asked: What measured PBM binding z-score goes with "TCTATTAGTTGATTAGGGGAACCGAAACAGCGGA" ?
Given back: 0.954

Asked: Form field: reported PBM binding z-score of "CAAACTAGGTCAAGGTCAAGGTCGGTTTGTGCCA"
Given back: 6.47

Asked: Need PBM binding z-score, item "GGAACGAGGGCAAAGTTGATAACATCTGTCGACG"
Given back: 1.57

Asked: Name the reported PBM binding z-score value associated with the sequence "ATCGAAAGGTCGAGGTGTGTATAGAGAAAGGGAA"
Given back: 3.92

Asked: Reported PBM binding z-score for "ACTCGGAGCACAAAGGTCAGAGCTACGCCAGTGA" : what is it?
Given back: 3.44
